These data points were gathered from ChEMBL document CHEMBL3232919.

tested target: Sodium channel protein type 3 subunit alpha (Homo sapiens)
Sequence (Q9NY46 whole entry): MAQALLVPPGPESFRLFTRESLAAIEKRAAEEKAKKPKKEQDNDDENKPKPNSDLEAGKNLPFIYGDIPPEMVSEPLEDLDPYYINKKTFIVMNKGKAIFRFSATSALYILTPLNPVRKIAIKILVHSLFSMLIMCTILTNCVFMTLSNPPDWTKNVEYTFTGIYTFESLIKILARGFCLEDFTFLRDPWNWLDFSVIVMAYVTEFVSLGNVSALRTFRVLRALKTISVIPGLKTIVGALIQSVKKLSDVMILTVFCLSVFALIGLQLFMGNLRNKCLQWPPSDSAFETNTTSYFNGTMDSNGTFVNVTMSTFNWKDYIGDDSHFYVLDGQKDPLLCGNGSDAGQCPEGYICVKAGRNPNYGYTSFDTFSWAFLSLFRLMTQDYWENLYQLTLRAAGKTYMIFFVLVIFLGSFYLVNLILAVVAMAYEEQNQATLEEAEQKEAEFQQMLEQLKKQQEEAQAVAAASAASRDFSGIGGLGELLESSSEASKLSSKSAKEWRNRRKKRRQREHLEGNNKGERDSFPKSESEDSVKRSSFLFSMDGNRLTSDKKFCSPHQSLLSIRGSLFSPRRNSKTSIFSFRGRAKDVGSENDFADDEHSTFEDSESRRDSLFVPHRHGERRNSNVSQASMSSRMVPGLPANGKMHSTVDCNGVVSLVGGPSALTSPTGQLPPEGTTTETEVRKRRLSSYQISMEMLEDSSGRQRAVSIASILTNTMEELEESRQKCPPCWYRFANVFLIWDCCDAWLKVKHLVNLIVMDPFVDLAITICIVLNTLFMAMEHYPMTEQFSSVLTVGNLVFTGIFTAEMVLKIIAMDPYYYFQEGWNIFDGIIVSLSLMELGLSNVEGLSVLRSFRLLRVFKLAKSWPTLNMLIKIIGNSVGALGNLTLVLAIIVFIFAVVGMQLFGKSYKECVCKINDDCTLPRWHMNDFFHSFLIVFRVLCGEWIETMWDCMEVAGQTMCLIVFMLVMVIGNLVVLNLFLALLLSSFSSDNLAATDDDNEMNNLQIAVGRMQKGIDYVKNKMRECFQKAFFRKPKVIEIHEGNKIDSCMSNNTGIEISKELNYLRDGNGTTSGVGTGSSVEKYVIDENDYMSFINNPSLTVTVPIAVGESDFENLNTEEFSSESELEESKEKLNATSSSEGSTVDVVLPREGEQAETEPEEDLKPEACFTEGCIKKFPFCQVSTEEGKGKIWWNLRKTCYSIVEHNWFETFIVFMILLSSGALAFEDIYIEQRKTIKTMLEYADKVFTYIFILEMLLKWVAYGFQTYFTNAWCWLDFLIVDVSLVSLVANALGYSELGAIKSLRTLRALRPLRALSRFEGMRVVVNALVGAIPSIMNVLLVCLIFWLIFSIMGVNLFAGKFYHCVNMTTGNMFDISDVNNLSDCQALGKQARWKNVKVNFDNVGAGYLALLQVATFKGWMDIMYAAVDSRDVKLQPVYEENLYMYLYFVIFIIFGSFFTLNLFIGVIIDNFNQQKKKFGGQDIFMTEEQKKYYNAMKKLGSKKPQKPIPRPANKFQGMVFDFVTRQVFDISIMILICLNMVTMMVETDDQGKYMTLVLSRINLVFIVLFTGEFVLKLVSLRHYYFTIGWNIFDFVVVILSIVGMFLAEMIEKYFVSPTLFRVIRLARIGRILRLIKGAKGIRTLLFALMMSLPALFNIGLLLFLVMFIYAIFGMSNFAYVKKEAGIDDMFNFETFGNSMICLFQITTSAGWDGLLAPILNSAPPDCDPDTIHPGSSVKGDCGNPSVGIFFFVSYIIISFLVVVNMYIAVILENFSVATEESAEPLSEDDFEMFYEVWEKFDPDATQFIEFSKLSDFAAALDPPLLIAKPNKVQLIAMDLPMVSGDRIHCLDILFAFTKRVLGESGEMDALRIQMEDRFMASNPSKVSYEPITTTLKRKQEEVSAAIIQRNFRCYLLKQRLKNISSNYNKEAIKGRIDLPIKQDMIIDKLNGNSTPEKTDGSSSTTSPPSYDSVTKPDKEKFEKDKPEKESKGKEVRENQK
assay method text: Inhibition of human Nav1.3 assessed as inactivated-state block by patch-clamp electrophysiology/cell based assay
Listed next: entries and their corresponding pIC50.
Reminder that pIC50 is minus the log10 of a molar concentration.

O=C(NCc1noc(-c2c3ccccc3nn2CCn2ccnc2)n1)c1cccc(OC(F)(F)F)c1 ... 5.32

Proceeding to the next compound to report its pIC50.
Inquiry: Can you share its pIC50? I mean this compound: O=C(NCc1noc(-c2nn(CCn3ccnc3)c3ccccc23)n1)c1ccccc1
Reply text: 4.66

* * *

tested target: Sodium channel protein type 8 subunit alpha (Homo sapiens, UniProt Q9UQD0)
Sequence (Q9UQD0 whole entry): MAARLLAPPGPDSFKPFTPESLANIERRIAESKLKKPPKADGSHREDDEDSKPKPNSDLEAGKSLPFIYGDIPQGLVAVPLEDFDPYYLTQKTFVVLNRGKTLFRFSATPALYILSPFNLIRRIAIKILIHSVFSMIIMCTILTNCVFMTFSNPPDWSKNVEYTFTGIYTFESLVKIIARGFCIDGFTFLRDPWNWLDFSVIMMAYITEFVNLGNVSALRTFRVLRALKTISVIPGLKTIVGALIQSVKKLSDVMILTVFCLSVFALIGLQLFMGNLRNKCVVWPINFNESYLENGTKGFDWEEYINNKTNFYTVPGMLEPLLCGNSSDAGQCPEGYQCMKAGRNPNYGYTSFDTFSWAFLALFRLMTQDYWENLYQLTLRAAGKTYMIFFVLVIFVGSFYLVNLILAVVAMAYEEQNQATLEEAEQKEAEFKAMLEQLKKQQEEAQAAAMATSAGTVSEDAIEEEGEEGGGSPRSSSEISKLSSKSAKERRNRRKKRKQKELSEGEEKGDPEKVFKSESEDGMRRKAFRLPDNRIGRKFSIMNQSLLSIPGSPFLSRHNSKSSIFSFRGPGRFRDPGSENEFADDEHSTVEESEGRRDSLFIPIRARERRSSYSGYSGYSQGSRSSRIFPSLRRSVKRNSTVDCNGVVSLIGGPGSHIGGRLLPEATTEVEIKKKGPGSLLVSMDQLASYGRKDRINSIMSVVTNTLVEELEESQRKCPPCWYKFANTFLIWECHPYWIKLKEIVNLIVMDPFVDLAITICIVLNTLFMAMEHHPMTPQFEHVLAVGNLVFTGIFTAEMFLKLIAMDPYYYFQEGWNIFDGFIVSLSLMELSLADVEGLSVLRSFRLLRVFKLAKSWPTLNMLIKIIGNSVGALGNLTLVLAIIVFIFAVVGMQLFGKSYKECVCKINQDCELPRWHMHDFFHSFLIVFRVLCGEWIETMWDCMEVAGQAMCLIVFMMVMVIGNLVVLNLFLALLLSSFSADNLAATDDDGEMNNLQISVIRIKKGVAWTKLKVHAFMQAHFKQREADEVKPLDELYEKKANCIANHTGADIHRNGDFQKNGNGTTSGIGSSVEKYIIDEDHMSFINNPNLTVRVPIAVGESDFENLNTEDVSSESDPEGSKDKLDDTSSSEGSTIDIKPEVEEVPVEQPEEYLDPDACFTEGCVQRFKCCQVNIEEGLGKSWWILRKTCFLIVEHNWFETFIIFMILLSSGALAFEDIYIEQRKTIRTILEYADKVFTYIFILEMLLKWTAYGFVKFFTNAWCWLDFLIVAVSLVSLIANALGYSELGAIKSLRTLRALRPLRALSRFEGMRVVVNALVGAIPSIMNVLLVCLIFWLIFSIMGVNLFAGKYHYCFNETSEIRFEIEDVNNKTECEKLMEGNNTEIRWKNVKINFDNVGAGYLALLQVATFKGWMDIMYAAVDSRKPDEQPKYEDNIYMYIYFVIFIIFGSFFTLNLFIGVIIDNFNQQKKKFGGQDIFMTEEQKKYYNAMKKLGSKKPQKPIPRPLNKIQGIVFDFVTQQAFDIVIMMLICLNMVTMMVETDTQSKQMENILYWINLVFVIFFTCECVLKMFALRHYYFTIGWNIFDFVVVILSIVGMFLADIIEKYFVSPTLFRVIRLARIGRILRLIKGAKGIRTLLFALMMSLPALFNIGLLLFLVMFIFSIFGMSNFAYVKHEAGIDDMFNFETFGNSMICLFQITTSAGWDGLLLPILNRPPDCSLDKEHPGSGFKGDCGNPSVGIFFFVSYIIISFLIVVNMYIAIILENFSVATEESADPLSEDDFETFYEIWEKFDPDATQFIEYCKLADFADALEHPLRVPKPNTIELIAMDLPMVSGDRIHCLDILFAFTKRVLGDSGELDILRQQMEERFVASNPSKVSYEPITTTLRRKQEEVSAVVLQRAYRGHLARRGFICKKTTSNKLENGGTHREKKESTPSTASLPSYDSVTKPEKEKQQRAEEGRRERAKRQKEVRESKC
assay method text: Inhibition of human Nav1.6 assessed as inactivated-state block by patch-clamp electrophysiology/cell based assay
measure: pIC50
Reminder that pIC50 is minus the log10 of a molar concentration.

O=C(NCc1noc(-c2nn(CCn3ccnc3)c3ccccc23)n1)c1ccccc1 ... 4.62

Proceeding to the next molecule to report its pIC50.
Inquiry: Can you share its pIC50? I mean this molecule: O=C(NCc1noc(-c2c3ccccc3nn2CCn2ccnc2)n1)c1cccc(OC(F)(F)F)c1
Reply text: 5.48
